Entries with their measured IC50, system TRKa (Homo sapiens, UniProt P04629):
Just the number please, in nM, no unit attached.

Completed entries (count: 2):
[
  {
    "COMPOUND": "C[C@H]1CNC(=O)c2cnn3c(N)c(-c4ccc(NC(=O)OCC5CC5)cc4)c(nc23)NCc2cc(F)cnc2O1 [Example 63]",
    "OBSERVED": 65
  },
  {
    "COMPOUND": "C[C@H]1CNC(=O)c2cnn3cc(-c4ccccc4Cl)c(nc23)NCc2cc(F)cnc2O1 [Compound 4]",
    "OBSERVED": 294
  }
]

Next:
Task item: What value of IC50 on TRKa (Homo sapiens, UniProt P04629) does C[C@H]1CNC(=O)c2cnn3cc(-c4ccccc4F)c(nc23)NCc2cc(F)cnc2O1 [Compound 6] have?
Reply: 1340

====

Target: RET V804M (Homo sapiens, UniProt P07949, V804M)
Sequence (P07949 29-1114 V804M): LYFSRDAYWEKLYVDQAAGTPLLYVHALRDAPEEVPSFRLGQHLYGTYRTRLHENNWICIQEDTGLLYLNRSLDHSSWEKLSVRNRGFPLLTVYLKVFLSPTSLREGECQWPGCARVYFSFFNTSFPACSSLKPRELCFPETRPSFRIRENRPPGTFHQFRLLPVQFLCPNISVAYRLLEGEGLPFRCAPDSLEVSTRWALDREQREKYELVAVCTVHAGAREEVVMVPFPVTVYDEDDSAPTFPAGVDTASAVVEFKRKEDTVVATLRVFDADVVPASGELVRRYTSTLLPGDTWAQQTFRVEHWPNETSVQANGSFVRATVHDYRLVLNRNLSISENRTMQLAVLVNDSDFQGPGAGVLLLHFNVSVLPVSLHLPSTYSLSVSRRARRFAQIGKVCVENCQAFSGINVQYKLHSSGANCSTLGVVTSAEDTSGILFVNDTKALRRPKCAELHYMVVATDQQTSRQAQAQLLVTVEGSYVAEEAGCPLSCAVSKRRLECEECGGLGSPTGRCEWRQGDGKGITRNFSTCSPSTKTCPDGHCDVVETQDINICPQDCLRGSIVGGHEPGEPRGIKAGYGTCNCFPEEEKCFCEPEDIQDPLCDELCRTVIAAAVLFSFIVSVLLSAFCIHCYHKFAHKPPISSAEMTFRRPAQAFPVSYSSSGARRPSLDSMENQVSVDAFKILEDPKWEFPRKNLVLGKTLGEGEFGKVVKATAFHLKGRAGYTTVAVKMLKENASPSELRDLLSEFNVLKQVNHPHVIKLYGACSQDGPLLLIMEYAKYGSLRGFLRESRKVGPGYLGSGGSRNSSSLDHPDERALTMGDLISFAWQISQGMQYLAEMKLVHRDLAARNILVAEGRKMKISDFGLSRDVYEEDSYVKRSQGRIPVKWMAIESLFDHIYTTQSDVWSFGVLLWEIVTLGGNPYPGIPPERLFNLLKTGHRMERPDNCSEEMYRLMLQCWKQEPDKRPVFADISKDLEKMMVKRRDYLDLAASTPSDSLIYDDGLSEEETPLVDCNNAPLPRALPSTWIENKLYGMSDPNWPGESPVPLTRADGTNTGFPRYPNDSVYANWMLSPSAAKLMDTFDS
Experiment: In vitro kinase activity assay (mobility shift assay), RET V804M
Conditions: ATP 5.4 μM, reaction time 60 min
VALUE KIND: IC50 (nM)
Record the value in nM, omitting the unit from your answer.

[
  {
    "COMPOUND": "CCOC(=O)Nc1c(F)cc(-c2c3nc4c(cnn4c2N)C(=O)NC[C@H](C)Oc2ncc(F)cc2CN3)cc1F [Example 70]",
    "IC50, nM": 551
  },
  {
    "COMPOUND": "C[C@H]1CNC(=O)c2cnn3c(N)c(-c4cnn(C)c4)c(nc23)NCc2cc(F)cnc2O1 [Example 82]",
    "IC50, nM": 9.5
  }
]

In the following, a different compound is considered.
Task item: Quick one: IC50 of CCOC(=O)Nc1ccc(-c2c3nc4c(cnn4c2N)C(=O)NCCOc2ncc(F)cc2CN3)cc1 [Example 72] ?
Reply: 1.4

====

Recorded IC50 by entry
Target: RET V804M (Homo sapiens, UniProt P07949, V804M)
Experiment: In vitro kinase activity assay (mobility shift assay), RET V804M
Conditions: ATP 5.4 μM, reaction time 60 min

[
  {
    "COMPOUND": "CC(=O)Nc1ccc(-c2cn3ncc4c3nc2NCc2cc(F)cnc2O[C@@H](C)CNC4=O)cc1",
    "IC50": "> 10000 nM"
  },
  {
    "COMPOUND": "CNc1ccc(-c2c3nc4c(cnn4c2N)C(=O)NC[C@H](C)Oc2ncc(F)cc2CN3)cc1",
    "IC50": "> 1000 nM"
  },
  {
    "COMPOUND": "Cc1nn2c(N)c(-c3ccccc3)c3nc2c1C(=O)NC[C@H](C)Oc1ncc(F)cc1CN3",
    "IC50": "> 1000 nM"
  }
]

Task item: Consider the compound shown here: COC(=O)NC1CC=C(c2cn3ncc4c3nc2NCc2cc(F)cnc2O[C@@H](C)CNC4=O)CC1 (stereo partly drawn) What is its recorded IC50?
Reply: > 10000 nM

Task item: Which measured IC50 value corresponds to `C[C@H]1CNC(=O)c2cnn3cc(-c4ccccc4)c(nc23)NCc2cc(F)cnc2O1` ?
Reply: > 10000 nM

Task item: Form field: reported IC50 of `COC(=O)Nc1ccc(-c2c3nc4c(cnn4c2N)C(=O)NC[C@H](C)Oc2ncc(F)cc2CN3)cc1`
Reply: 1.3 nM
